Target: isolated recombinant JAK1 kinase domain (Homo sapiens (Human), UniProt P23458)
Sequence (P23458 875-1153): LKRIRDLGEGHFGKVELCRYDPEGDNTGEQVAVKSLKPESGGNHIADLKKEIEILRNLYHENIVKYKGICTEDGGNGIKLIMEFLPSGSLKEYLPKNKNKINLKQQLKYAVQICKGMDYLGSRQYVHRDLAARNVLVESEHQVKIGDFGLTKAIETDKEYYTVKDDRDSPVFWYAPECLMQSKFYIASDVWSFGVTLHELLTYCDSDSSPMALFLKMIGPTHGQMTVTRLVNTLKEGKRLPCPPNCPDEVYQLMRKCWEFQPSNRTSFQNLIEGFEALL
Assay: JAK1 enzyme assay (Caliper LabChip, peptide phosphorylation)
Format: biochemical
Conditions: isolated recombinant JAK1 kinase domain, 25 μM ATP
Structures can show the parent of a compound that is named as a salt.
experimental_endpoint: Ki (nM)

• CN[C@@H](C)Cn1cc(NC(=O)c2cnn3cccnc23)c(-c2cc(Cl)ccc2OC(F)F)n1 = 1.13
• O=C(Nc1cn(CC(=O)N2CCC(O)CC2)nc1-c1cc(Cl)ccc1OC(F)F)c1cnn2cccnc12 = 0.24
• CN1CCN(C(=O)Cn2cc(NC(=O)c3cnn4cccnc34)c(-c3cc(Cl)ccc3OC(F)F)n2)CC1 = 0.55
• O=C(Nc1cn(CC(=O)N2CCC(N(CCC(F)(F)F)Cc3ccccc3)CC2)nc1-c1cc(Cl)ccc1OC(F)F)c1cnn2cccnc12 = 2.57
• CC1(C(=O)OCCN2CCOCC2)CCN(C(=O)Cn2cc(NC(=O)c3cnn4cccnc34)c(-c3cc(Cl)ccc3OC(F)F)n2)CC1 = 0.41
• O=C(Nc1cn(Cc2cn(C3CCN(C4CCOCC4)CC3)nn2)nc1-c1cc(Cl)ccc1OC(F)F)c1cnn2cccnc12 = 0.45
• O=C(Nc1cn(CC(=O)N2CCC(N3CCCOCC3)CC2)nc1-c1cc(Cl)ccc1OC(F)F)c1cnn2cccnc12 = 0.52
• O=C(Nc1cn(CC(=O)N2C[C@H]3CN(CCCN4CCCC4=O)C[C@H]3C2)nc1-c1cc(Cl)ccc1OC(F)F)c1cnn2cccnc12 = 0.56
• CN(CCC1CCCCC1)C1CCN(C(=O)Cn2cc(NC(=O)c3cnn4cccnc34)c(-c3cc(Cl)ccc3OC(F)F)n2)CC1 = 0.67
• O=C(CNCCn1cc(NC(=O)c2cnn3cccnc23)c(-c2cc(Cl)ccc2OC(F)F)n1)OC1CCCC1 = 1.45
• O=C(Nc1cn(CC(=O)N2C[C@H]3CN(CCCO)C[C@H]3C2)nc1-c1cc(Cl)ccc1OC(F)F)c1cnn2cccnc12 = 1.14
• CN(CCn1cc(NC(=O)c2cnn3cccnc23)c(-c2cc(Cl)ccc2OC(F)F)n1)CC1CCC(=O)O1 (stereo not drawn) = 1.28
• O=C(Nc1cn(CC(=O)N2CCC(NCCc3ccccc3)CC2)nc1-c1cc(Cl)ccc1OC(F)F)c1cnn2cccnc12 = 0.88
• CN1C[C@@H]2CN(C(=O)Cn3cc(NC(=O)c4cnn5ccc(N)nc45)c(-c4cc(Cl)ccc4OC(F)F)n3)C[C@@H]2C1 [Example 7, hydrochloride] = 1.1
• O=C(Nc1cn(CC(=O)N2CCC(C(=O)O)CC2)nc1-c1cc(Cl)ccc1OC(F)F)c1cnn2cccnc12 = 0.19
• CN(C(=O)Cn1cc(NC(=O)c2cnn3cccnc23)c(-c2cc(Cl)ccc2OC(F)F)n1)C1(CO)CC1 = 0.29
• CCOC(=O)CN1CCC(n2cc(NC(=O)c3cnn4cccnc34)c(-c3cc(Cl)ccc3OC(F)F)n2)CC1 = 1.07
• CC(C)(C#N)CNC1CCN(C(=O)Cn2cc(NC(=O)c3cnn4cccnc34)c(-c3cc(Cl)ccc3OC(F)F)n2)CC1 = 0.27
• O=C(Nc1cn(CC(=O)N2CCC(NC(c3ccccc3)C(F)(F)F)CC2)nc1-c1cc(Cl)ccc1OC(F)F)c1cnn2cccnc12 (stereo not drawn) = 0.57
• O=C(Nc1cn(CC(=O)N2CCOCC2)nc1-c1cc(Cl)ccc1OC(F)F)c1cnn2cccnc12 = 0.58
• O=C(Nc1cn(CC(=O)N2CCC(NCCc3ccc(Cl)cc3)CC2)nc1-c1cc(Cl)ccc1OC(F)F)c1cnn2cccnc12 = 0.92
• COc1ccc(CCN(C)C2CCN(C(=O)Cn3cc(NC(=O)c4cnn5cccnc45)c(-c4cc(Cl)ccc4OC(F)F)n3)CC2)cc1 = 0.8
• CC(C)CN1CCC(n2cc(NC(=O)c3c(N)nn4cccnc34)c(-c3cc(Cl)ccc3OC(F)F)n2)CC1 = 0.67
• CN(C)CCOC(=O)C1(C)CCN(C(=O)Cn2cc(NC(=O)c3cnn4cccnc34)c(-c3cc(Cl)ccc3OC(F)F)n2)CC1 = 0.44
• Cc1ccc(CN(C)C2CCN(C(=O)Cn3cc(NC(=O)c4cnn5cccnc45)c(-c4cc(Cl)ccc4OC(F)F)n3)CC2)c(C)c1 = 1.14
• CN1CCC(n2cc(Cn3cc(NC(=O)c4cnn5cccnc45)c(-c4cc(Cl)ccc4OC(F)F)n3)nn2)CC1 = 0.4
• COCCNCCn1cc(NC(=O)c2cnn3cccnc23)c(-c2cc(Cl)ccc2OC(F)F)n1 = 0.89

Every entry's value here was drawn from patent US9346815B2.
